// TOTAL BILIRUBIN lookup, one value per entry
# Species: Rattus norvegicus
# protocol description: DrugMatrix - Regimen: Daily Repeat
# Assay type: toxicity, organism-based, Sprague-Dawley
# Set-up: regimen Daily Repeat, gender Male, age 6-8 weeks
# condition info: in vivo, po, 2000 mg/kg, 72 h, tissue Plasma, route oral GAVAGE, dose level High, time 3 day, vehicle .5 % CMC
Your answer is read as mg/dL, so omit the unit and give the number.

These solved cases illustrate the format of a correct answer.
• NCC(=O)O = 0.2
• CC(=O)O[C@]1(C(C)=O)CC[C@H]2[C@@H]3C=C(Cl)C4=CC(=O)CC[C@]4(C)[C@H]3CC[C@@]21C [CHLORMADINONE ACETATE] = 0.17

Query string: Provide TOTAL BILIRUBIN value for the following compound: `CC(C)[C@H](N)C(=O)OCCOCn1cnc2c(=O)[nH]c(N)nc21`
Result string: 0.23

Query string: Quick one: give measured TOTAL BILIRUBIN for NCCCC[C@H](N[C@@H](CCc1ccccc1)C(=O)O)C(=O)N1CCC[C@H]1C(=O)O [LISINOPRIL ANHYDROUS]
Result string: 0.13

---

# Species: Rattus norvegicus
# protocol description: DrugMatrix - Regimen: Daily Repeat
# Assay type: toxicity, organism-based, Sprague-Dawley
# Parameters: regimen Daily Repeat, gender Male, age 6-8 weeks
# condition info: in vivo, iv, 0 mg/kg, 72 h, tissue Blood, dose level Control, time 3 day, vehicle 100 % SALINE
property label: MONOCYTE (%)
Provide the reading as a plain figure in %.

Example cases with answers are listed next.
• NCC[C@H](O)C(=O)N[C@@H]1C[C@H](N)[C@@H](O[C@H]2O[C@H](CN)[C@@H](O)[C@H](O)[C@H]2O)[C@H](O)[C@H]1O[C@H]1O[C@H](CO)[C@@H](O)[C@H](N)[C@H]1O = 0.83
• CN(N=O)C(=O)N[C@@H](C=O)[C@@H](O)[C@H](O)[C@H](O)CO = 2
• CC1(C)S[C@@H]2[C@H](NC(=O)[C@H](NC(=O)N3CCNC3=O)c3ccccc3)C(=O)N2[C@H]1C(=O)O = 0.83

Shift focus to the following entry.
Query string: Input `CC[C@@]1(O)C(=O)OCc2c1cc1n(c2=O)Cc2cc3ccccc3nc2-1` , output reported MONOCYTE.
Result string: 1.5

---

# Species: Rattus norvegicus
# protocol description: DrugMatrix - Regimen: Daily Repeat
# Type: toxicity, organism-based, Sprague-Dawley
# Set-up: regimen Daily Repeat, gender Male, age 6-8 weeks
# condition info: in vivo, po, 80 mg/kg, 2184 h, tissue Blood, route oral GAVAGE, dose level High, time 91 day, vehicle .5 % CMC
property label: ABSOLUTE LYMPHOCYTE

Query string: Please indicate ABSOLUTE LYMPHOCYTE recorded for `O=c1cc(-c2ccccc2)oc2c1ccc1ccccc12`
Result string: 10400 cells/µL

---

# Organism: Rattus norvegicus
# protocol description: DrugMatrix - Regimen: Daily Repeat
# Format: toxicity, organism-based, Sprague-Dawley
# Parameters: regimen Daily Repeat, gender Male, age 6-8 weeks
# condition info: in vivo, po, 0 mg/kg, 72 h, tissue Blood, route oral GAVAGE, dose level Control, time 3 day, vehicle .5 % CMC
property label: ABSOLUTE LYMPHOCYTE (CELLS/uL)
Value expressed in CELLS/uL; do not type the unit.

Some solved cases for reference:
• COC(=O)c1ccc(O)cc1 = 10913.67
• CN1CCC[C@@H]1CCO[C@](C)(c1ccccc1)c1ccc(Cl)cc1 = 12191.17
• CC(C)[C@H](N)C(=O)OCCOCn1cnc2c(=O)[nH]c(N)nc21 = 13776.5
• CC(/C=C1\SC(=S)N(CC(=O)O)C1=O)=C\c1ccccc1 = 12191.17

// next entry
Query string: Answer with the recorded ABSOLUTE LYMPHOCYTE for the compound listed here: `CCC[C@@H]1C[C@@H](C(=O)N[C@@H]([C@H]2O[C@H](SC)[C@H](O)[C@@H](O)[C@H]2O)[C@@H](C)O)N(C)C1`
Result string: 12269.67

---

Entries annotated with measured MEAN CORPUSCULAR HEMOGLOBIN CONCENTRATION
# Species on record: Rattus norvegicus
# protocol description: DrugMatrix - Regimen: Daily Repeat
# Assay type: toxicity, organism-based, Sprague-Dawley
# Design: regimen Daily Repeat, gender Male, age 6-8 weeks
# condition info: in vivo, po, 10 mg/kg, 120 h, tissue Blood, route oral GAVAGE, dose level Low, time 5 day, vehicle .5 % CMC
Numbers only; they are read as G/DL.

- COc1c(C)c2c(c(O)c1C/C=C(\C)CCC(=O)OCCN1CCOCC1)C(=O)OC2 [MYCOPHENOLATE MOFETIL]: 40.03
- NS(=O)(=O)c1cc2c(cc1Cl)NCNS2(=O)=O [HYDROCHLOROTHIAZIDE]: 39.47
- O=C1CN=C(c2ccccc2)c2cc([N+](=O)[O-])ccc2N1 [NITRAZEPAM]: 39.33

Query string: Let me know recorded MEAN CORPUSCULAR HEMOGLOBIN CONCENTRATION for CC(=O)O[C@]1(C(C)=O)CC[C@H]2[C@@H]3C=C(Cl)C4=CC(=O)CC[C@]4(C)[C@H]3CC[C@@]21C [CHLORMADINONE ACETATE] , thanks.
Result string: 39.23

---

# Species: Rattus norvegicus
# protocol description: DrugMatrix - Regimen: Daily Repeat
# Assay type: toxicity, organism-based, Sprague-Dawley
# Parameters: regimen Daily Repeat, gender Male, age 6-8 weeks
# condition info: in vivo, po, 0 mg/kg, 120 h, tissue Blood, route oral GAVAGE, dose level Control, time 5 day, vehicle 100 % WATER
Each entry below lists one item and its recorded MEAN CORPUSCULAR HEMOGLOBIN CONCENTRATION value.

Reference set, count: 5
- COc1ccc(C(CN(C)C)C2(O)CCCCC2)cc1 (stereo not given): 39.13 G/DL
- CC(C)(S)[C@@H](N)C(=O)O: 39.57 G/DL
- CNCCC=C1c2ccccc2CCc2ccccc21: 40.08 G/DL
- Fc1ccc([C@@H]2CCNC[C@H]2COc2ccc3c(c2)OCO3)cc1: 39.33 G/DL
- Clc1ccc(C(c2ccccc2Cl)C(Cl)Cl)cc1 (stereo not given): 39.3 G/DL

Query string: Output MEAN CORPUSCULAR HEMOGLOBIN CONCENTRATION of CN1CCN(C(=O)OC2c3nccnc3C(=O)N2c2ccc(Cl)cn2)CC1 (stereo not given)
Result string: 38.52 G/DL

Query string: Output measured MEAN CORPUSCULAR HEMOGLOBIN CONCENTRATION for this item: `COc1cc2c(N3CCN(C(=O)Nc4ccc(OC(C)C)cc4)CC3)ncnc2cc1OCCCN1CCCCC1`
Result string: 30.38 G/DL

Query string: Input `Cc1cc(NS(=O)(=O)c2ccc(N)cc2)no1` , output reported MEAN CORPUSCULAR HEMOGLOBIN CONCENTRATION.
Result string: 39.13 G/DL

Query string: Read off the recorded MEAN CORPUSCULAR HEMOGLOBIN CONCENTRATION for `NC(=O)c1ncn([C@@H]2O[C@H](CO)[C@@H](O)[C@H]2O)n1`
Result string: 39.43 G/DL

Query string: Consider the molecule CC(CCc1ccccc1)NCC(O)c1ccc(O)c(C(N)=O)c1 (stereo not given) . State its measured MEAN CORPUSCULAR HEMOGLOBIN CONCENTRATION.
Result string: 39 G/DL

---

# Species on record: Rattus norvegicus
# protocol description: DrugMatrix - Regimen: Daily Repeat
# Format: toxicity, organism-based, Sprague-Dawley
# Set-up: regimen Daily Repeat, gender Male, age 6-8 weeks
# condition info: in vivo, po, 0 mg/kg, 72 h, tissue Blood, route oral GAVAGE, dose level Control, time 3 day, vehicle 100 % WATER
property label: ERYTHROCYTE COUNT (x10E6/uL)
Answer format: numeric, x10E6/uL implied, no suffix.

- Clc1ccc(C(c2ccccc2Cl)C(Cl)Cl)cc1 (stereo not given) [MITOTANE]: 5.52
- NNC(=O)c1ccncc1 [ISONIAZID]: 5.17
- CC(C)(S)[C@@H](N)C(=O)O [PENICILLAMINE]: 5.35

Query string: Answer with the recorded ERYTHROCYTE COUNT for the molecule listed here: NCC1(CC(=O)O)CCCCC1 [GABAPENTIN]
Result string: 5.26

Query string: Tell me measured ERYTHROCYTE COUNT for Cc1cc(NS(=O)(=O)c2ccc(N)cc2)no1 [SULFAMETHOXAZOLE] please.
Result string: 5.3

Query string: Answer with the recorded ERYTHROCYTE COUNT for the molecule listed here: CC1COc2c(N3CCN(C)CC3)c(F)cc3c(=O)c(C(=O)O)cn1c23 (stereo not given) [OFLOXACIN]
Result string: 5.16

Query string: Give the reported ERYTHROCYTE COUNT for this molecule. CC1(C)S[C@@H]2[C@H](NC(=O)[C@H](N)c3ccc(O)cc3)C(=O)N2[C@H]1C(=O)O [AMOXICILLIN]
Result string: 5.85

Query string: Return value of ERYTHROCYTE COUNT for input CNCCC=C1c2ccccc2CCc2ccccc21 [NORTRIPTYLINE] , no commentary.
Result string: 5.26

Query string: Determine from records and report ERYTHROCYTE COUNT for Cn1cnc([N+](=O)[O-])c1Sc1ncnc2nc[nH]c12 [AZATHIOPRINE]
Result string: 5.56

Query string: Answer with the recorded ERYTHROCYTE COUNT for the molecule listed here: COc1cc2c(N3CCN(C(=O)Nc4ccc(OC(C)C)cc4)CC3)ncnc2cc1OCCCN1CCCCC1 [TANDUTINIB]
Result string: 6.09
